measurement_notes: pH stability of quenched linker-payloads in buffers (LCMS)
Assay type: physicochemical
experimental_setup: DMSO, 3 Day, RT
Catalogue of percentage of the remaining compound readings, one per entry.

| compound | percentage of the remaining compound |
| --- | --- |
| CCCC1O[C@@H]2C[C@H]3[C@@H]4CCC5=CC(=O)C=C[C@]5(C)[C@H]4[C@@H](O)C[C@]3(C)[C@]2(C(=O)COC2CCCN2C(=O)CNC(=O)CCOCCOCCOCCOCCNC(=O)CCC(=O)N2Cc3ccccc3-c3c(nnn3CC3OC4OC5C(CO)OC(OC6C(CO)OC(OC7C(CO)OC(OC8C(CO)OC(OC9C(CO)OC(OC3C(O)C4O)C(O)C9O)C(O)C8O)C(O)C7O)C(O)C6O)C(O)C5O)-c3ccccc32)O1 (stereo partly shown) | 100% |
| CCCC1O[C@@H]2C[C@H]3[C@@H]4CCC5=CC(=O)C=C[C@]5(C)[C@H]4[C@@H](O)C[C@]3(C)[C@]2(C(=O)COCNC(=O)CNC(=O)CCC(=O)N2Cc3ccccc3-c3c(nnn3CC3OC4OC5C(CO)OC(OC6C(CO)OC(OC7C(CO)OC(OC8C(CO)OC(OC9C(CO)OC(OC3C(O)C4O)C(O)C9O)C(O)C8O)C(O)C7O)C(O)C6O)C(O)C5O)-c3ccccc32)O1 (stereo partly shown) | 97% |
| CCCC1O[C@@H]2C[C@H]3[C@@H]4CCC5=CC(=O)C=C[C@]5(C)[C@H]4[C@@H](O)C[C@]3(C)[C@]2(C(=O)COCN(C)C(=O)CNC(=O)OCc2ccc(NC(=O)[C@H](CCCNC(N)=O)NC(=O)[C@@H](NC(=O)CCOCCOCCOCCOCCNC(=O)CCC(=O)N3Cc4ccccc4-c4c(nnn4CCOCCOCCOCCOCCC(=O)NCCS(=O)(=O)O)-c4ccccc43)C(C)C)cc2)O1 (stereo partly shown) | 100% |
| CC(C)[C@H](NC(=O)CCOCCOCCOCCOCCNC(=O)CCC(=O)N1Cc2ccccc2-c2c(nnn2CCOCCOCCOCCOCCC(=O)NCCS(=O)(=O)O)-c2ccccc21)C(=O)N[C@@H](CCCNC(N)=O)C(=O)Nc1ccc(COC(=O)NCC(=O)NCOCC(=O)[C@@]2(O)[C@H](C)C[C@H]3[C@@H]4CCC5=CC(=O)C=C[C@]5(C)[C@@]4(F)[C@@H](O)C[C@@]32C)cc1 | 100% |

* * *

measurement_notes: pH stability of quenched linker-payloads in buffers (LCMS)
Type: physicochemical
experimental_setup: DMSO, 1 Day, RT

| compound | units_label | percentage of the remaining compound |
| --- | --- | --- |
| CC(C)[C@H](NC(=O)CCOCCOCCOCCOCCNC(=O)CCC(=O)N1Cc2ccccc2-c2c(nnn2CCOCCOCCOCCOCCC(=O)NCCS(=O)(=O)O)-c2ccccc21)C(=O)N[C@@H](CCCNC(N)=O)C(=O)Nc1ccc(COC(=O)NCC(=O)NCOCC(=O)[C@@]2(O)[C@H](C)C[C@H]3[C@@H]4CCC5=CC(=O)C=C[C@]5(C)[C@@]4(F)[C@@H](O)C[C@@]32C)cc1 | % | 100 |
| CCCC1O[C@@H]2C[C@H]3[C@@H]4CCC5=CC(=O)C=C[C@]5(C)[C@H]4[C@@H](O)C[C@]3(C)[C@]2(C(=O)COCNC(=O)CNC(=O)CCC(=O)N2Cc3ccccc3-c3c(nnn3CC3OC4OC5C(CO)OC(OC6C(CO)OC(OC7C(CO)OC(OC8C(CO)OC(OC9C(CO)OC(OC3C(O)C4O)C(O)C9O)C(O)C8O)C(O)C7O)C(O)C6O)C(O)C5O)-c3ccccc32)O1 (stereo partly shown) | % | 97 |
| CCCC1O[C@@H]2C[C@H]3[C@@H]4CCC5=CC(=O)C=C[C@]5(C)[C@H]4[C@@H](O)C[C@]3(C)[C@]2(C(=O)COCN(C)C(=O)CNC(=O)OCc2ccc(NC(=O)[C@H](CCCNC(N)=O)NC(=O)[C@@H](NC(=O)CCOCCOCCOCCOCCNC(=O)CCC(=O)N3Cc4ccccc4-c4c(nnn4CCOCCOCCOCCOCCC(=O)NCCS(=O)(=O)O)-c4ccccc43)C(C)C)cc2)O1 (stereo partly shown) | % | 100 |
| CCCC1O[C@@H]2C[C@H]3[C@@H]4CCC5=CC(=O)C=C[C@]5(C)[C@H]4[C@@H](O)C[C@]3(C)[C@]2(C(=O)COC2CCCN2C(=O)CNC(=O)CCOCCOCCOCCOCCNC(=O)CCC(=O)N2Cc3ccccc3-c3c(nnn3CC3OC4OC5C(CO)OC(OC6C(CO)OC(OC7C(CO)OC(OC8C(CO)OC(OC9C(CO)OC(OC3C(O)C4O)C(O)C9O)C(O)C8O)C(O)C7O)C(O)C6O)C(O)C5O)-c3ccccc32)O1 (stereo partly shown) | % | 100 |

* * *

measurement_notes: pH stability of quenched linker-payloads in buffers (LCMS)
Assay type: physicochemical
experimental_setup: pH 5.0, 3 Day, RT

| compound | percentage of the remaining compound [%] |
| --- | --- |
| CCCC1O[C@@H]2C[C@H]3[C@@H]4CCC5=CC(=O)C=C[C@]5(C)[C@H]4[C@@H](O)C[C@]3(C)[C@]2(C(=O)COCNC(=O)CNC(=O)CCC(=O)N2Cc3ccccc3-c3c(nnn3CC3OC4OC5C(CO)OC(OC6C(CO)OC(OC7C(CO)OC(OC8C(CO)OC(OC9C(CO)OC(OC3C(O)C4O)C(O)C9O)C(O)C8O)C(O)C7O)C(O)C6O)C(O)C5O)-c3ccccc32)O1 (stereo partly shown) | 100 |
| CCCC1O[C@@H]2C[C@H]3[C@@H]4CCC5=CC(=O)C=C[C@]5(C)[C@H]4[C@@H](O)C[C@]3(C)[C@]2(C(=O)COC2CCCN2C(=O)CNC(=O)CCOCCOCCOCCOCCNC(=O)CCC(=O)N2Cc3ccccc3-c3c(nnn3CC3OC4OC5C(CO)OC(OC6C(CO)OC(OC7C(CO)OC(OC8C(CO)OC(OC9C(CO)OC(OC3C(O)C4O)C(O)C9O)C(O)C8O)C(O)C7O)C(O)C6O)C(O)C5O)-c3ccccc32)O1 (stereo partly shown) | 82 |
| CCCC1O[C@@H]2C[C@H]3[C@@H]4CCC5=CC(=O)C=C[C@]5(C)[C@H]4[C@@H](O)C[C@]3(C)[C@]2(C(=O)COCN(C)C(=O)CNC(=O)OCc2ccc(NC(=O)[C@H](CCCNC(N)=O)NC(=O)[C@@H](NC(=O)CCOCCOCCOCCOCCNC(=O)CCC(=O)N3Cc4ccccc4-c4c(nnn4CCOCCOCCOCCOCCC(=O)NCCS(=O)(=O)O)-c4ccccc43)C(C)C)cc2)O1 (stereo partly shown) | 100 |
| CC(C)[C@H](NC(=O)CCOCCOCCOCCOCCNC(=O)CCC(=O)N1Cc2ccccc2-c2c(nnn2CCOCCOCCOCCOCCC(=O)NCCS(=O)(=O)O)-c2ccccc21)C(=O)N[C@@H](CCCNC(N)=O)C(=O)Nc1ccc(COC(=O)NCC(=O)NCOCC(=O)[C@@]2(O)[C@H](C)C[C@H]3[C@@H]4CCC5=CC(=O)C=C[C@]5(C)[C@@]4(F)[C@@H](O)C[C@@]32C)cc1 | 100 |

* * *

measurement_notes: pH stability of quenched linker-payloads in buffers (LCMS)
Format: physicochemical
experimental_setup: pH 4.0, day 2
The entries below come with measured P: percentage of budesonide released from the linker-payloads values attached.
readout_kind: P: percentage of budesonide released from the linker-payloads (%)

| compound | endpoint_result |
| --- | --- |
| CCCC1O[C@@H]2C[C@H]3[C@@H]4CCC5=CC(=O)C=C[C@]5(C)[C@H]4[C@@H](O)C[C@]3(C)[C@]2(C(=O)COC2CCCN2C(=O)CNC(=O)CCOCCOCCOCCOCCNC(=O)CCC(=O)N2Cc3ccccc3-c3c(nnn3CCOCCOCCOCCOCCC(=O)NCCS(=O)(=O)O)-c3ccccc32)O1 (some centres unmarked) [Q1L6-PII-9] | 89 |
| CCCC1O[C@@H]2C[C@H]3[C@@H]4CCC5=CC(=O)C=C[C@]5(C)[C@H]4[C@@H](O)C[C@]3(C)[C@]2(C(=O)COCNC(=O)CNC(=O)OCc2ccc(O[C@@H]3O[C@H](CO)[C@@H](O)[C@H](O)[C@H]3O)c(C(=O)NCCNC(=O)COC3C#CCCCCC3)c2)O1 (some centres unmarked) [L18-PII-1, COT-EDA-(GLC)PAB-G-NHCH2-Bud] | 0 |
| CCCC1OC2CC3C4CCC5=CC(=O)C=CC5(C)C4C(O)CC3(C)C2(C(=O)COCN2CCCC(NC(=O)OCc3ccc(NC(=O)C(CCCNC(N)=O)NC(=O)C(NC(=O)CCOCCOCCOCCOCCNC(=O)CCC(=O)N4Cc5ccccc5-c5c(nnn5CCOCCOCCOCCOCCC(=O)NCCS(=O)(=O)O)-c5ccccc54)C(C)C)cc3)C2=O)O1 (mixture of isomers) [Q1L1-PII-12] | 0 |
| CCCC1O[C@@H]2C[C@H]3[C@@H]4CCC5=CC(=O)C=C[C@]5(C)[C@H]4[C@@H](O)C[C@]3(C)[C@]2(C(=O)COCN(C)C(=O)CNC(=O)OCc2ccc(NC(=O)[C@H](CCCNC(N)=O)NC(=O)[C@@H](NC(=O)CCOCCOCCOCCOCCNC(=O)CCC(=O)N3Cc4ccccc4-c4c(nnn4CCOCCOCCOCCOCCC(=O)NCCS(=O)(=O)O)-c4ccccc43)C(C)C)cc2)O1 (some centres unmarked) [Q1L1-PII-8] | 0 |
| CCCC1OC2CC3C4CCC5=CC(=O)C=CC5(C)C4C(O)CC3(C)C2(C(=O)COC2CCN2C(=O)CNC(=O)CCOCCOCCOCCOCCNC(=O)CCC(=O)N2Cc3ccccc3-c3c(nnn3CCOCCOCCOCCOCCC(=O)NCCS(=O)(=O)O)-c3ccccc32)O1 (mixture of isomers) [Q1L6-PII-13] | 0 |
